Origin of values: paper PMC11480844

B1: H2-Kb / Ed21 (parent complex)
chain 1: AQSVTQPDARVTVSEGASLQLRCKYSYFGTPYLFWYVQYPRQGLQLLLKYYPGDPVVQGVNGFEAEFSKSNSSFHLRKASVHWSDWAVYFCAVSMSGGYKVVFGSGTRLLVSP
chain 2: DSGVVQSPRHIIKEKGGRSVLTCIPISGHSNVVWYQQTLGKELKFLIQHYEKVERDKGFLPSRFSVQQFDDYHSEMNMSALELEDSAMYFCASSPRQTDYTFGSGTRLLVI
chain 3: not shown
chain 4: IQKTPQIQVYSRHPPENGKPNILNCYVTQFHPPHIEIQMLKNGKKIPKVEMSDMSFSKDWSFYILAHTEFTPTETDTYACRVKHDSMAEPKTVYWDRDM
chain 5: SIINFEKL

Variants of: B1
Test: % of reporter cells activated (NFAT-GFP), raw; also: test concentration or dose not given here
EXPERIMENTAL ENDPOINT: ratio to parent

// solved cases for ratio to parent follow
chain 5 I3S | 0.901
chain 5 S1A | 1.02

A. chain 5 L8P
B. chain 5 N4G
## Input Hello, I am sorting some records. Could you say if A or B has the smaller ratio to parent value? Give the chosen item's label as your response.
## Output B

I. chain 5 L8D
II. chain 5 N4W
III. chain 5 N4D
## Input Ordering criterion: ratio to parent; begin with the maximum. # output: labels, in the requested order
## Output I, III, II
